- target desc: Mucosa-associated lymphoid tissue lymphoma translocation protein 1 (Homo sapiens)
- Sequence (Q9UDY8 whole entry): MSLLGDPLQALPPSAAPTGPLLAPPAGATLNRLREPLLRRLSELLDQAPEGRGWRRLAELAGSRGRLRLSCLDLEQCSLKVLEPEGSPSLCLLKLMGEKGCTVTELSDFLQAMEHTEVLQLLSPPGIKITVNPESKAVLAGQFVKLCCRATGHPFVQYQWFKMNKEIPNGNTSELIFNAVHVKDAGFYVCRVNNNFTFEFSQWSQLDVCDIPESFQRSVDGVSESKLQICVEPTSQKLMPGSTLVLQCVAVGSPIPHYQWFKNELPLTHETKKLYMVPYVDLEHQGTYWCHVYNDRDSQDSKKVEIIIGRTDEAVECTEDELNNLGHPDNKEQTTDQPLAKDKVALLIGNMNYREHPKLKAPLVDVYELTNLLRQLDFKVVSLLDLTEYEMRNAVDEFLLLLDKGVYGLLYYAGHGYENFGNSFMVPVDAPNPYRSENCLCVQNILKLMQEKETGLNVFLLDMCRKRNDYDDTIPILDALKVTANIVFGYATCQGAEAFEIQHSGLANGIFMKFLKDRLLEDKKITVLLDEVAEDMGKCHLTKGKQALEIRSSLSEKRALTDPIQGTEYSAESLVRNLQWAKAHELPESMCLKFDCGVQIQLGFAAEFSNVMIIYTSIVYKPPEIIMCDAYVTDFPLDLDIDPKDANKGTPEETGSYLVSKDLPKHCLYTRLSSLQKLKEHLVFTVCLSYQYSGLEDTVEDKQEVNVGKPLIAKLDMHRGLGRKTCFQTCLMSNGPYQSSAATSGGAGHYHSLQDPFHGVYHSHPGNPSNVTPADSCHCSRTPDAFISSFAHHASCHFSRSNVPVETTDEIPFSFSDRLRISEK
- protocol summary: Inhibition of MALT1 in human OCI-LY3 cells assessed a decrease in BCL10 cleavage after 24 hrs by ELISA
For each entry below, report its pEC50 value.
// pEC50 is dimensionless: -log10 of concentration (M)

Req: Item: Nc1cccnc1N1CCC(C(=O)Nc2ccc(F)c(Cl)c2)CC1 Test system: Mucosa-associated lymphoid tissue lymphoma translocation protein 1 (Homo sapiens) Read-out: pEC50 Value: ?
Resp: 6.27

Req: Provide the documented pEC50 with Mucosa-associated lymphoid tissue lymphoma translocation protein 1 (Homo sapiens) as the system for O=C(Nc1cccc(Cl)c1)C1CCN(c2ncccc2Cl)CC1
Resp: 5.47

Req: Under Mucosa-associated lymphoid tissue lymphoma translocation protein 1 (Homo sapiens): pEC50 value of O=C(Nc1ccc(F)c(Cl)c1)C1CCN(c2nccnc2Cl)CC1 ?
Resp: 6.40

Req: Provide the documented pEC50 with Mucosa-associated lymphoid tissue lymphoma translocation protein 1 (Homo sapiens) as the system for Nc1cccnc1N1CCC(C(=O)Nc2cnc(-n3nccn3)c(Cl)c2)CC1
Resp: 6.25

Req: What is its pEC50 for Mucosa-associated lymphoid tissue lymphoma translocation protein 1 (Homo sapiens)? Entry: Nc1cccnc1N1CCC(C(=O)Nc2ccc(-n3nccn3)c(Cl)c2)CC1
Resp: 6.72

Req: Recorded pEC50 for CNC(=O)c1ncn(-c2ccc(NC(=O)C3CCN(c4ncccc4Cl)CC3)cc2Cl)n1 with Mucosa-associated lymphoid tissue lymphoma translocation protein 1 (Homo sapiens), please?
Resp: 6.68

Req: Fill in the recorded pEC50 for this molecule, with Mucosa-associated lymphoid tissue lymphoma translocation protein 1 (Homo sapiens) as test system: O=C(Nc1ccc(F)c(Cl)c1)C1CCN(c2ccccc2)CC1
Resp: 5.04

Req: Look up pEC50 with Mucosa-associated lymphoid tissue lymphoma translocation protein 1 (Homo sapiens) for this molecule: COc1ncc(NC(=O)C2CCN(c3ncccc3Cl)CC2)cc1Cl
Resp: 6.35

Req: Query for Mucosa-associated lymphoid tissue lymphoma translocation protein 1 (Homo sapiens): what pEC50 does the record show for N#Cc1cccnc1N1CCC(C(=O)Nc2ccc(F)c(Cl)c2)CC1 ?
Resp: 5.68

Req: Record lookup: for Mucosa-associated lymphoid tissue lymphoma translocation protein 1 (Homo sapiens), what pEC50 belongs to O=C(Nc1cnc(-n2nccn2)c(Cl)c1)C1CCN(c2ncccc2Cl)CC1 ?
Resp: 6.64

Req: Param readout = pEC50; param system = Mucosa-associated lymphoid tissue lymphoma translocation protein 1 (Homo sapiens); param query = O=C(Nc1ccc(F)c(Cl)c1)C1CCN(c2ncccc2Cl)CC1 ; response: value
Resp: 5.82

Req: # value lookup — system Mucosa-associated lymphoid tissue lymphoma translocation protein 1 (Homo sapiens), readout pEC50, item O=C(Nc1ccc(F)c(Cl)c1)C1CCN(c2ncccn2)CC1
Resp: 5.27

Reference for the values: ChEMBL document CHEMBL4118176
